Source listed as patent US20170334899A1.

studyTarget: CDK2/CycE (Homo sapiens)
Construct: GST
protocolText: CDK2/CycE kinase assay (TR-FRET)
reportedConditions: avg, read-out: CDK2 avg (IC50 [mol/l])
pIC50: −log10 of the molar value.
Catalogue of pIC50 readings, one per entry.

For orientation, consider the following solved cases.
Cc1nsc(Nc2cnc3ccccc3n2)c1C(=O)Nc1ccc(C(N)=O)c(F)c1
< 4.70
Cc1nsc(Nc2cnc(C(F)(F)F)cn2)c1C(=O)Nc1ccc(F)c(OC[C@H]2CCCN(CC(F)F)C2)c1
< 4.70
Cc1nsc(Nc2cnc(C(F)(F)F)cn2)c1C(=O)Nc1ccc(N2CCN(CCC(F)(F)F)CC2)cn1
< 4.70

According to the records, this compound Cc1nsc(Nc2nc3c(C(F)(F)F)cccc3s2)c1C(=O)Nc1ccc(OCCO)nc1 displays pIC50 of ≤ 4.70

According to the records, this compound Cc1nsc(Nc2cncc(C(F)(F)F)n2)c1C(=O)Nc1ccc(OCCCO)nc1 displays pIC50 of < 4.70

According to the records, this compound Cc1nsc(Nc2cnc(C(F)(F)F)cn2)c1C(=O)Nc1ccc(OC2CCNCC2)nc1 displays pIC50 of ≤ 4.70

According to the records, this compound Cc1nsc(Nc2cc(C#N)ccn2)c1C(=O)Nc1ccc(OC2CCCNC2)nc1 (centres unmarked) displays pIC50 of ≤ 4.70

According to the records, this compound CNS(=O)(=O)c1ccc(NC(=O)c2c(C)nsc2Nc2cnc(C(F)(F)F)cn2)cc1 displays pIC50 of < 4.70

----------
Quick record of pIC50 values for catalytic domain of human Bub1 (amino acids 704-1085) (Homo sapiens).
pIC50: −log10 of the molar value.

For orientation, consider the following solved cases.
Cc1nsc(Nc2cnc(C(F)(F)F)cn2)c1C(=O)Nc1ccc(OC2CCN(CCC(F)(F)F)C2)nc1 (centres unmarked) [Example 298]
< 4.70
Cc1nsc(Nc2cnc(C(F)(F)F)cn2)c1C(=O)Nc1ccc(OC2CCN(CCF)CC2)nc1 [Example 7]
≤ 4.70
Cc1nsc(Nc2cncc(C(F)(F)F)n2)c1C(=O)Nc1ccc(C(=O)NC2CCN(CC(F)F)CC2)cc1 [Example 225]
< 4.70
Cc1nsc(Nc2cnc3ccccc3n2)c1C(=O)Nc1ccc(NC2CCN(C(=O)OC(C)(C)C)CC2)nc1 [Example 234]
< 4.70
Cc1nsc(Nc2ccc(C#N)cn2)c1C(=O)Nc1ccc(OC2CCCNC2)nc1 (centres unmarked) [Example 37]
≤ 4.70
CC(=O)N1CCC(Oc2ccc(NC(=O)c3c(C)nsc3Nc3cnc(C(F)(F)F)cn3)cn2)CC1 [Example 11]
≤ 4.70
Cc1nsc(Nc2cnc(C(F)(F)F)cn2)c1C(=O)Nc1ccc(N2CCN(CC(F)F)CC2)nc1 [Example 359]
< 4.70

Okay, now this compound:
Summary line: Cc1nsc(Nc2cnc3ccccc3n2)c1C(=O)Nc1ccc(OC2CCCN(C(=O)OC(C)(C)C)C2)nc1 (centres unmarked) [Example 31] , catalytic domain of human Bub1 (amino acids 704-1085) (Homo sapiens), reported pIC50 = ≤ 4.70

----------
System: human cervical tumor cell line HeLa (ATCC CCL-2)
protocolText: SAC-Formation - Nocodazole-Induced Assay
Format: cell-based
reportedConditions: Homo sapiens, HeLa, 24 h, HeLa cells, nocodazole 0.1 μg/ml together with test compound, decrease of mitotic cells (phospho-histone H3 Ser10)
propertyLabel: IC50 (nM)
Kindly provide the numeric value in nM only, without the unit symbol.

Cc1nsc(Nc2cnc3ccccc3n2)c1C(=O)Nc1cccc(C(=O)NCCN2CCCC2)c1
52
Cc1nsc(Nc2cnc3ccccc3n2)c1C(=O)Nc1cccc(C(=O)NCC(=O)O)c1
1100
Cc1nsc(Nc2cnc(C(F)(F)F)cn2)c1C(=O)Nc1ccc(OC[C@@H]2CCCN(CCC(F)(F)F)C2)nc1
40
CC(=O)NCCNC(=O)c1cccc(NC(=O)c2c(C)nsc2Nc2cnc3ccccc3n2)c1
720
Cc1nsc(Nc2cnc(C(F)(F)F)cn2)c1C(=O)Nc1ccc(F)c(C(N)=O)c1
290
Cc1nsc(Nc2cnc3ccccc3n2)c1C(=O)Nc1cccc(C(=O)N[C@@H](CCC(N)=O)C(=O)OC(C)(C)C)c1
1200
Cc1nsc(Nc2cnc(C(F)(F)F)cn2)c1C(=O)Nc1ccc(F)c(OC[C@H]2CCN(CC(F)F)C2)c1
31

Okay, now this compound:
According to the records, this compound Cc1nsc(Nc2cnc(C(F)(F)F)cn2)c1C(=O)Nc1ccc(OC2CCN(C(C)C)CC2)nc1 displays IC50 of 2000
